B1: PLAGL1 (parent)
chain: TKEKKHQCDHCERCFYTRKDVRRH

- Variants of: B1
- ASSAY_COMMENT: protein stability index of a GFP-peptide fusion (GPS, HEK-293T) (PSI 1-6); higher = more stable;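 note: lentivirally expressed fusions sorted by FACS into six bins by GFP to DsRed ratio, PSI derived from sequencing read proportions per bin multiplied by bin number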
- CONDITION_SUMMARY: c terminus: a fixed tail appended
Give protein stability index for every item shown.
Give bare numbers.

Sample records with protein stability index:
# MUTATION_NOTATION, protein stability index
data = [
    ("K19V", 2.95),
    ("H24V", 3.11),
]

Look up protein stability index for the entries below, preserving their order.
1. C11D
2. K4E
3. K5I
4. Y16T
5. Y16H
6. H10K
7. Y16S
8. R23M

result:
1. 3.96
2. 4.01
3. 3.13
4. 3.58
5. 3.46
6. 3.91
7. 3.63
8. 3.79
